Each record here notes measured clearance.
Assay: Clearance in CD mouse at 0.3 mg/kg, iv
Format: ADME, organism-based
Parameters: dose 0.3 mg/kg, route intravenous
Details: in vivo
Give just the number in mL/min/kg; leave the unit off.

# annotated cases, reported clearance shown
Cc1c(Cl)cccc1Cn1c(CO)nc(=O)c2sc(N3CCOCC3)nc21    29.4
Cc1c(Cn2c(C)nc(=O)c3sc(N4CCOCC4)nc32)cccc1C(F)(F)F    29.6

Shifting focus to the compound that follows.
Quick one: clearance of Cc1c(Cn2c(C3CC3)nc(=O)c3sc(N4CCOCC4)nc32)cccc1C(F)(F)F ?
48.6

----------
Each record here notes measured half-life.
Assay: Half life in CD mouse at 0.3 mg/kg, iv
Format: ADME, organism-based
Parameters: dose 0.3 mg/kg, route intravenous
Conditions: in vivo
Give just the number in h; leave the unit off.

# annotated cases, reported half-life shown
Cc1c(Cn2c(C)nc(=O)c3sc(N4CCOCC4)nc32)cccc1C(F)(F)F    1.2
Cc1c(Cl)cccc1Cn1c(CO)nc(=O)c2sc(N3CCOCC3)nc21    1.9

Shifting focus to the molecule that follows.
Quick one: half-life of Cc1c(Cn2c(C3CC3)nc(=O)c3sc(N4CCOCC4)nc32)cccc1C(F)(F)F ?
0.75

----------
Target: Phosphatidylinositol 4,5-bisphosphate 3-kinase catalytic subunit gamma isoform (Homo sapiens, UniProt P48736)
Sequence (P48736 whole entry, canonical isoform): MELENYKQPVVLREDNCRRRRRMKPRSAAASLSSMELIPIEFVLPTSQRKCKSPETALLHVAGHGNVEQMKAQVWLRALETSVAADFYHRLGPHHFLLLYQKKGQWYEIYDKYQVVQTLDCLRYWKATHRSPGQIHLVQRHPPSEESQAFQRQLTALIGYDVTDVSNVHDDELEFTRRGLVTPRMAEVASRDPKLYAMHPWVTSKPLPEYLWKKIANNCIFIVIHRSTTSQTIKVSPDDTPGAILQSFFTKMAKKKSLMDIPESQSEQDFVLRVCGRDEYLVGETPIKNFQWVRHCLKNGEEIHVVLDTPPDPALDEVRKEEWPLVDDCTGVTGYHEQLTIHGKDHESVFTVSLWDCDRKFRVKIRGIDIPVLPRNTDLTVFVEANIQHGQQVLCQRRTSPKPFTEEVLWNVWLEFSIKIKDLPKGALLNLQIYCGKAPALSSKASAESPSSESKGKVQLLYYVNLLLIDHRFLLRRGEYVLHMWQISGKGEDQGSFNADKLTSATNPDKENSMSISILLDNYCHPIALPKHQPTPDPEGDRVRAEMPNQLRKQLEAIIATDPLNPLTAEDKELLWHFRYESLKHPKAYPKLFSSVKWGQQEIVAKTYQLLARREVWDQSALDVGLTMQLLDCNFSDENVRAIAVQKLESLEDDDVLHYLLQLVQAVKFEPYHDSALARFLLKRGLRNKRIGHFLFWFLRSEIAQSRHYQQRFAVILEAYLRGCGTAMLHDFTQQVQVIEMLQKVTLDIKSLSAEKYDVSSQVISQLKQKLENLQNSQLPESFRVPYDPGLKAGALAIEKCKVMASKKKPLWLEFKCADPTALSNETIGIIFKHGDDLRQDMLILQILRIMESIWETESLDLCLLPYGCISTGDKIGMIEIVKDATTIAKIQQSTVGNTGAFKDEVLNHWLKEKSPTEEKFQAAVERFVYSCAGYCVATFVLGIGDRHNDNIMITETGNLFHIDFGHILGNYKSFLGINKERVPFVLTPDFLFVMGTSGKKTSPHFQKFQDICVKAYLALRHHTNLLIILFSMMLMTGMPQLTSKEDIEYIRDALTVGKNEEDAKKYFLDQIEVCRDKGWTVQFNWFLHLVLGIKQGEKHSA
Test: Inhibition of PI3K gamma by continuous TR-FRET assay
pIC50: −log10 of the molar value.
Rule: pIC50 of 6 or more gives YES; anything lower gives NO.

In plain terms: is recorded pIC50 at least 6 for COc1nc(=O)c2sc(N3CCOCC3)nc2n1Cc1cccc(Cl)c1C ?
YES

Okay, and CC(c1ccccc1)n1cnc(=O)c2sc(N3CCOCC3)nc21 (stereo unspecified) ?
NO

Okay, and Cc1c(Cl)cccc1Cn1c(N)nc(=O)c2sc(N3CCOCC3)nc21 ?
YES

Okay, and O=c1ncn(Cc2ccsc2Cl)c2nc(N3CCOCC3)sc12 ?
NO

Okay, and O=c1ncn(Cc2ccccc2)c2nc(N3CCOCC3)sc12 ?
NO

Okay, and O=c1ncn(Cc2ccccc2Cl)c2nc(N3CCOCC3)sc12 ?
NO

Okay, and Cc1c(Cl)cccc1Cn1c(CO)nc(=O)c2sc(N3CCOCC3)nc21 ?
YES

Okay, and Cc1c(Cl)cccc1Cn1cnc(=O)c2sc(N3CCOCC3)nc21 ?
NO

Okay, and Cc1c(Cn2c(-c3ccccc3)nc(=O)c3sc(N4CCOCC4)nc32)cccc1C(F)(F)F ?
NO

----------
Target: Phosphatidylinositol 4,5-bisphosphate 3-kinase catalytic subunit gamma isoform (Homo sapiens)
Test: Inhibition of PI3K gamma by continuous TR-FRET assay
pIC50: −log10 of the molar value.
Rule: pIC50 of 6 or more gives 1; anything lower gives 0.

Recorded results for 2 compounds are shown here.
Cc1c(Cn2c(CO)nc(=O)c3sc(N4CCOCC4)nc32)cccc1C(F)(F)F    1
O=c1ncn(CCc2ccccc2)c2nc(N3CCOCC3)sc12    0

In plain terms: is recorded pIC50 at least 6 for Cc1c(Cl)cccc1Cn1c(=O)[nH]c(=O)c2sc(N3CCOCC3)nc21 ?
0

Okay, and Cc1c(Cn2c(CN)nc(=O)c3sc(N4CCOCC4)nc32)cccc1C(F)(F)F ?
0

Okay, and CSc1nc(=O)c2sc(N3CCOCC3)nc2n1Cc1cccc(Cl)c1C ?
0

Okay, and Cc1c(Cl)cccc1Cn1c(=S)[nH]c(=O)c2sc(N3CCOCC3)nc21 ?
0

Okay, and Cc1c(Cl)cccc1Cn1c(SCC(=O)O)nc(=O)c2sc(N3CCOCC3)nc21 ?
1

----------
Target: Phosphatidylinositol 4,5-bisphosphate 3-kinase catalytic subunit gamma isoform (Homo sapiens)
Assay: Inhibition of PI3K gamma by continuous TR-FRET assay
Quantity measured: pIC50
// scale note: pIC50 = -log10(conc_M); give the bare number

Cc1c(Cn2c(Cc3ccccc3)nc(=O)c3sc(N4CCOCC4)nc32)cccc1C(F)(F)F    5.70

Quick one: pIC50 of Cc1c(Cn2cnc(=O)c3sc(N4CCOCC4)nc32)cccc1C(F)(F)F ?
5.80

Okay, and Cc1ccccc1Cn1cnc(=O)c2sc(N3CCOCC3)nc21 ?
5.60

Okay, and O=c1ncn(Cc2cccc(Cl)c2Cl)c2nc(N3CCOCC3)sc12 ?
5.89

----------
Each record here notes measured log10(IC50).
Target: Phosphatidylinositol 4,5-bisphosphate 3-kinase catalytic subunit alpha isoform (Homo sapiens, UniProt P42336)
Sequence (P42336 whole entry, canonical isoform): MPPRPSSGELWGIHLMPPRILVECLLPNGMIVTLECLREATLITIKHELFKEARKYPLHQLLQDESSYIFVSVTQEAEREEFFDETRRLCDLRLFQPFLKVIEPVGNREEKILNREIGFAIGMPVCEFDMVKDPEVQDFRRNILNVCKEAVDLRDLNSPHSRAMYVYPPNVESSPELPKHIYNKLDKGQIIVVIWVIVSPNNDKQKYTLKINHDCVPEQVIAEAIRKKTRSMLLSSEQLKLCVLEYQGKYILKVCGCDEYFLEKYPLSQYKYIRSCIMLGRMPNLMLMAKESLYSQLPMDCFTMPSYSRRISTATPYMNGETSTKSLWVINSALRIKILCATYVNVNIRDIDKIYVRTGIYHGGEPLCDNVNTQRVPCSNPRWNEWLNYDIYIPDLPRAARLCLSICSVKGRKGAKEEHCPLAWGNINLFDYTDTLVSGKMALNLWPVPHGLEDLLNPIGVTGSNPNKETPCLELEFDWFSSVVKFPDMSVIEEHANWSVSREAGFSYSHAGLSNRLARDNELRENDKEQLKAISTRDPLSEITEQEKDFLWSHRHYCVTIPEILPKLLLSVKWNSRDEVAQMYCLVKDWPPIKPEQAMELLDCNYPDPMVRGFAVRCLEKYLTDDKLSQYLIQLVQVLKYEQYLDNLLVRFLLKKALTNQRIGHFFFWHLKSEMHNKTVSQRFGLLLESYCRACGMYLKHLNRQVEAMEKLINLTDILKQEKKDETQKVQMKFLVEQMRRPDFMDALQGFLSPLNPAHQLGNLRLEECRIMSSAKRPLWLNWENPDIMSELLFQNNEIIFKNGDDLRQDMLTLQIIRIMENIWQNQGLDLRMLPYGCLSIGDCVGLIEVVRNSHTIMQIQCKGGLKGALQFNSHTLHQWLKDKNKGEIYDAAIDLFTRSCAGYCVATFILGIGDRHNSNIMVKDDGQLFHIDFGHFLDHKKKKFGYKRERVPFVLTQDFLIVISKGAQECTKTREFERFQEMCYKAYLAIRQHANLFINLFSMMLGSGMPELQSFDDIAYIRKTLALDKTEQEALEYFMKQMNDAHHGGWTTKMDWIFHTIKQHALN
Assay: Inhibition of PI3K alpha by continuous TR-FRET assay
Base-10 log of IC50, unit nM.

# annotated cases, reported log10(IC50) shown
Cc1c(Cn2c(C3CC3)nc(=O)c3sc(N4CCOCC4)nc32)cccc1C(F)(F)F    3.11
Cc1c(Cl)cccc1Cn1c(=S)[nH]c(=O)c2sc(N3CCOCC3)nc21    3.30
Cc1c(Cl)cccc1Cn1cnc(=O)c2sc(N3CCOCC3)nc21    3.40
Cc1c(Cl)cccc1Cn1c(N)nc(=O)c2sc(N3CCOCC3)nc21    2.40
Cc1c(Cl)cccc1Cn1c(CO)nc(=O)c2sc(N3CCOCC3)nc21    2.70
COc1nc(=O)c2sc(N3CCOCC3)nc2n1Cc1cccc(Cl)c1C    3.20

Quick one: log10(IC50) of Cc1c(Cl)cccc1Cn1c(SCC(=O)O)nc(=O)c2sc(N3CCOCC3)nc21 ?
2.60

Okay, and CSc1nc(=O)c2sc(N3CCOCC3)nc2n1Cc1cccc(Cl)c1C ?
3.30

Okay, and Cc1ccccc1Cn1cnc(=O)c2sc(N3CCOCC3)nc21 ?
3.40

Okay, and O=c1ncn(Cc2ccsc2Cl)c2nc(N3CCOCC3)sc12 ?
3.51

Okay, and O=c1ncn(Cc2cccc(Cl)c2Cl)c2nc(N3CCOCC3)sc12 ?
3.00

Okay, and Cc1c(Cn2c(CO)nc(=O)c3sc(N4CCOCC4)nc32)cccc1C(F)(F)F ?
2.80

Okay, and Cc1c(Cn2cnc(=O)c3sc(N4CCOCC4)nc32)cccc1C(F)(F)F ?
3.60

Okay, and Cc1c(Cl)cccc1Cn1c(C)nc(=O)c2sc(N3CCOCC3)nc21 ?
3.30

Okay, and Cc1c(Cn2c(Cc3ccccc3)nc(=O)c3sc(N4CCOCC4)nc32)cccc1C(F)(F)F ?
3.40

Okay, and O=c1ncn(Cc2ccccc2)c2nc(N3CCOCC3)sc12 ?
3.90

Okay, and Cc1c(Cl)cccc1Cn1c(=O)[nH]c(=O)c2sc(N3CCOCC3)nc21 ?
4.70

----------
Assay: Volume of distribution at steady state in CD mouse at 0.3 mg/kg, iv
Type: ADME, organism-based
Design: dose 0.3 mg/kg, route intravenous
Conditions: in vivo, read-out: Vdss
Quantity measured: Vd (L/kg)
Give just the number in L/kg; leave the unit off.

Cc1c(Cn2c(C3CC3)nc(=O)c3sc(N4CCOCC4)nc32)cccc1C(F)(F)F    2.6
Cc1c(Cl)cccc1Cn1c(CO)nc(=O)c2sc(N3CCOCC3)nc21    3.35

Shifting focus to the molecule that follows.
Quick one: Vd of Cc1c(Cn2c(C)nc(=O)c3sc(N4CCOCC4)nc32)cccc1C(F)(F)F ?
2.8

----------
Molecular target: Phosphatidylinositol 4,5-bisphosphate 3-kinase catalytic subunit delta isoform (Homo sapiens)
Sequence (O00329 whole entry): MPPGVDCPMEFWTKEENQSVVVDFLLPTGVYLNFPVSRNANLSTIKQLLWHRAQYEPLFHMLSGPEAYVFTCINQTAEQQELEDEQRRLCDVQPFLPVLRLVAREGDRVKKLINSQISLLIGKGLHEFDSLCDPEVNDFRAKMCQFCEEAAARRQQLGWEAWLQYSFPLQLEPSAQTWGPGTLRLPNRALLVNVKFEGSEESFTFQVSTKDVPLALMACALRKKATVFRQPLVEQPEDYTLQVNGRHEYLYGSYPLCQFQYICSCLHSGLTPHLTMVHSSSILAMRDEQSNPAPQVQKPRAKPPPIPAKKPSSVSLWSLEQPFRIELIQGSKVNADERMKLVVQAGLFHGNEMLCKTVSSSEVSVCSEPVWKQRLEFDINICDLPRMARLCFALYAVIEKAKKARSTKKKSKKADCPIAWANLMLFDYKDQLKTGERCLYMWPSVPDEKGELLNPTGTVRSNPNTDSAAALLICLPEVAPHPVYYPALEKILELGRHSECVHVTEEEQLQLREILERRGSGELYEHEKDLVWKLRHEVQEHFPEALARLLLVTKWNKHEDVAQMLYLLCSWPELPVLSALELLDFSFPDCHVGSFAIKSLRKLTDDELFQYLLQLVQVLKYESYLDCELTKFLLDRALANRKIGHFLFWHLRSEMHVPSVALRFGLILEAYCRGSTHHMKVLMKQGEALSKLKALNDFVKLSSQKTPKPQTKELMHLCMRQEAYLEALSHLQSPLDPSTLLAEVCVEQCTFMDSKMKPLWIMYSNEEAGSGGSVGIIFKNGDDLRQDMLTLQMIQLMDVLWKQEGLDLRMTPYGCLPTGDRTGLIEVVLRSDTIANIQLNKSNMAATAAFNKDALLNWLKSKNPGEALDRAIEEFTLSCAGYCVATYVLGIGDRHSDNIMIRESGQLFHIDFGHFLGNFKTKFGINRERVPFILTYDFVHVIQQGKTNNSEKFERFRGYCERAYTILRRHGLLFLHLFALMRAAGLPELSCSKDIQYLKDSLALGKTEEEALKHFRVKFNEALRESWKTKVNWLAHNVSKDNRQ
Assay: Inhibition of PI3K delta by continuous TR-FRET assay
Quantity measured: IC50 (nM)
Give just the number in nM; leave the unit off.

# annotated cases, reported IC50 shown
COc1nc(=O)c2sc(N3CCOCC3)nc2n1Cc1cccc(Cl)c1C    10
CCc1nc(=O)c2sc(N3CCOCC3)nc2n1Cc1cccc(C(F)(F)F)c1C    13

Shifting focus to the compound that follows.
Quick one: IC50 of Cc1c(Cn2c(Cc3ccccc3)nc(=O)c3sc(N4CCOCC4)nc32)cccc1C(F)(F)F ?
63
